# ASSAYED_SYSTEM: KRas G12D/Q61H double mutant (Homo sapiens (Human), UniProt P01116, G12D/Q61H)
# Sequence (P01116-2 other isoform, or with tags, fused parts or gaps G12D/Q61H): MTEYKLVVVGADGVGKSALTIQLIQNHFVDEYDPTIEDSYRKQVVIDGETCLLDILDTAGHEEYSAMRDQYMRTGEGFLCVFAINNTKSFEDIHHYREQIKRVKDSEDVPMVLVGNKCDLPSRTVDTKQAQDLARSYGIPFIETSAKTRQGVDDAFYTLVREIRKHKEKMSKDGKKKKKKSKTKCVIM
# ASSAY_SUMMARY: Ras GTP binding domain inhibition assay (labeled GTP)
# EXPERIMENTAL_PARAMETERS: 20 μM compound; read-out: % Inhibition at 20 μM KRas G12D Q61H
# Description: Buffer-I: • 50 mM Tris, pH 7.5 • 150 mM NaCl (optional) • 1 mM MgCl2 • 1 mM DTT. • KRas G12D mutant protein was expressed as a His-tagged protein. […] Then 22 μl of Cy3-GTP or Cy5-GTP was added to each well. The labeled GTP was incubated for 45 min. at room temperature. • Following GTP incubation, wells were washed 3× in Buffer-I, and 200 μl of Buffer-I were added to each well. • Following washes, the amount of bound labeled-GTP was measured with an Eppendorf AF2200 plate reader. […]
Examples of molecules with documented inhibition at 20 µM follow.
REPORTED_METRIC: inhibition at 20 µM

molecule="O=C(c1csc2c(O)nc(-c3ccccn3)nc12)N1CCC(c2ccncc2)C1 (stereo not drawn) [drawing 2839]" result="51 to 75%"
molecule=Cc1ccccc1CC(=O)Nc1nnc(-c2ccccn2)[nH]1 result="25 to 50%"
molecule=O=c1[nH]c(-c2ccnc(Oc3ccccc3Cl)c2)nc2ccsc12 result="1 to 25%"
molecule="COc1cc(CCN(C)C(=O)c2csc3nc(-c4ccccn4)nc(N4CCOCC4)c23)ccn1 [drawing 2781]" result=0%
molecule="N#Cc1ccccc1N1CCN(C(=O)c2csc3c(O)nc(-c4ccccn4)nc23)CC1 [drawing 2722]" result="1 to 25%"
molecule="COc1ccc2c(c1)CCC2C(=O)Nc1ccnc(-c2ccccn2)n1 (stereo not drawn) [drawing 2795]" result="1 to 25%"
molecule="O=C(c1csc2c(O)nc(-c3ccccn3)nc12)N1CCNC(c2cn[nH]c2)C1 (stereo not drawn) [drawing 2858]" result="51 to 75%"
molecule=O=C(c1nccc2ccccc12)N(Cc1nccn1C(F)F)C1CC1 result="1 to 25%"
molecule=O=C(CCc1ccc(F)cc1)Nc1nnc(-c2ccccn2)[nH]1 result="25 to 50%"
molecule="CC(C)(C)c1ccc(OCC(=O)N2N=CCC2(O)C(F)(F)F)cc1 (stereo not drawn)" result="25 to 50%"
molecule="CNC(=O)c1ccc(-c2csc3c(O)nc(-c4ccccn4)nc23)cc1C [drawing 2885]" result="25 to 50%"
molecule="O=C(c1csc2c(O)nc(-c3ccccn3)nc12)N1CCN(Cc2ccccc2)CC1 [drawing 2762]" result="25 to 50%"
molecule=CN(Cc1ccc(Br)cc1)Cc1ccc(C(=O)NCC(F)(F)F)cc1 result="1 to 25%"
molecule=Cc1cccc(C)c1Oc1ccccc1NCc1nc(C2CC2)no1 result="25 to 50%"
molecule=COCc1ccc(C(=O)N(Cc2cccs2)Cc2ccccc2OC)cc1 result="1 to 25%"
molecule=O=C(c1cc(-c2ccccc2)on1)N(Cc1ccco1)C1CCCC1 result="25 to 50%"
molecule=Cc1cnn(CCC(=O)Nc2nnc(-c3ccccn3)[nH]2)c1 result="25 to 50%"
molecule=COc1ccccc1CN(Cc1cccs1)C(=O)c1ccc(C#N)cc1 result="25 to 50%"
molecule=COc1ccc(-c2csc(C3CC3)n2)cc1Cl result="25 to 50%"
molecule=Cc1ccccc1Oc1ncccc1NCc1csc(-c2ccccn2)n1 result="25 to 50%"
molecule="Nc1nc(-c2ccccn2)nc2scc(-c3ccccc3)c12 [drawing 2822]" result="1 to 25%"

Data provenance is patent US10940139B2.
